Catalogue of compounds with associated % Conversion (prodrug converted to parent drug after binding to bone)
Format: in vitro ADME
measurement.conditions: PBS, 24 h incubation, 37° C.
// return numeric value only (unit: %, not printed)

Dear colleague, please send me the reported % Conversion (prodrug converted to parent drug after binding to bone) for `CO[C@H]1/C=C/O[C@@]2(C)Oc3c(C)c(O)c4c(c3C2=O)C2=NC3(CCN(CC(C)C)CC3)N(C(=O)OCc3cc(C)c(OC(=O)CCC(P(=O)(O)O)P(=O)(O)O)c(C)c3)C2=C(NC(=O)/C(C)=C\C=C\[C@H](C)[C@H](O)[C@@H](C)[C@@H](O)[C@@H](C)[C@H](OC(C)=O)[C@@H]1C)C4=O.N.N` when you can.
0.14

Dear colleague, please send me the reported % Conversion (prodrug converted to parent drug after binding to bone) for `CCC(=O)OCOC(=O)N[C@@H](CCCCNC(=O)CCC(P(=O)(O)O)P(=O)(O)O)C(=O)N(C)CC(=O)O[C@@H]1[C@@H](C)[C@@H](O)[C@@H](C)[C@H](OC(C)=O)[C@H](C)[C@@H](OC)/C=C/O[C@@]2(C)Oc3c(C)c(O)c4c(c3C2=O)C2=NC3(CCN(CC(C)C)CC3)NC2=C(NC(=O)/C(C)=C\C=C\[C@@H]1C)C4=O.N.N` when you can.
0.02

Dear colleague, please send me the reported % Conversion (prodrug converted to parent drug after binding to bone) for `CO[C@H]1/C=C/O[C@@]2(C)Oc3c(C)c(O)c4c(c3C2=O)C2=NC3(CCN(CC(C)C)CC3)N(C(=O)Oc3ccc(NC(=O)CCC(P(=O)(O)O)P(=O)(O)O)cc3)C2=C(NC(=O)/C(C)=C\C=C\[C@H](C)[C@H](O)[C@@H](C)[C@@H](O)[C@@H](C)[C@H](OC(C)=O)[C@@H]1C)C4=O` when you can.
0.06

---

Test system: S. aureus ATCC 29213
experimental.details: Antibacterial susceptibility (MIC), NCCLS broth microdilution
Assay type: cell-based
measurement.conditions: CAMHB, 37° C., 18 h
readout.label: Minimum inhibitory concentration, S. aureus ATCC 29213 (µg/mL)
// return numeric value only (unit: µg/mL, not printed)

compound: CCN(CC)CC.CCN(CC)CC.CO[C@H]1/C=C/O[C@@]2(C)Oc3c(C)c(O)c4c(c3C2=O)C2=NC3(CCN(CC(C)C)CC3)N(C(=O)OCc3ccc(OC(=O)CCCC(P(=O)(O)O)P(=O)(O)O)cc3)C2=C(NC(=O)/C(C)=C\C=C\[C@H](C)[C@H](O)[C@@H](C)[C@@H](O)[C@@H](C)[C@H](OC(C)=O)[C@@H]1C)C4=O
unit.text: µg/mL
reported.value: 0.125

compound: CCCCOC(=O)NCCN(CCCCC(P(=O)(O)O)P(=O)(O)O)CC(=O)O[C@@H]1[C@@H](C)[C@@H](O)[C@@H](C)[C@H](OC(C)=O)[C@H](C)[C@@H](OC)/C=C/O[C@@]2(C)Oc3c(C)c(O)c4c(c3C2=O)C2=NC3(CCN(CC(C)C)CC3)NC2=C(NC(=O)/C(C)=C\C=C\[C@@H]1C)C4=O
unit.text: µg/mL
reported.value: 8

Field: next compound
Determine reported Minimum inhibitory concentration, S. aureus ATCC 29213 for CCN(CC)CC.CO[C@H]1/C=C/O[C@@]2(C)Oc3c(C)c(O)c4c(c3C2=O)C2=NC3(CCN(CC(C)C)CC3)NC2=C(NC(=O)/C(C)=C\C=C\[C@H](C)[C@H](OC(=O)CNC(=O)Nc2ccc(CC(P(=O)(O)O)P(=O)(O)O)cc2)[C@@H](C)[C@@H](O)[C@@H](C)[C@H](OC(C)=O)[C@@H]1C)C4=O [Compound 142a] ; test system: S. aureus ATCC 29213.
16
